Test system: waterhemp_RES2 (ALS & HPPD resistant common waterhemp, Amaranthus rudis)
TEST_METHOD_NOTES: Test E greenhouse herbicide test, postemergence
Type: in vivo
CONDITION_PARAMETERS: 250 g ai/ha, scale 0 to 100 (0 no effect, 100 complete control)
Property: Plant response rating, Waterhemp_RES2; scope: individual compounds
I only need the number, thanks.

The cases that follow already have their Plant response rating, Waterhemp_RES2 on record.
> print(dat)
                                  structure  observed
1  Cc1ccc2ccccc2c1-c1c(OC(=O)OC(C)C)c(C)nn(C)c1=O        65
2       Cn1nc(Br)c(O)c(-c2cccc3ccccc23)c1=O        60
3  Cc1cc(C)c2sc(C)c(-c3c(O)c(C)nn(C)c3=O)c2c1        60
4    Cc1nn(C)c(=O)c(-c2cccc3ccc(Br)cc23)c1O        85

input: Consider the compound Cc1nn(C)c(=O)c(-c2ccc(F)c3ccccc23)c1O and give its measured Plant response rating, Waterhemp_RES2.
output: 85
